Molecular target: HCAII (Homo sapiens)
Construct: made in house
Experiment: Fluorescence competition assay: HCAII titrated into foldamer or ligand plus probe 23
Details: [competing species] = [23] = 50 nM; 50 mM HEPES pH 7.2; 1:1 binding isotherm, 380-600 nm; repeatable within ±15%
READOUT: Kd (nM)
The figure you give is taken to be in nM; do not add the unit.

Recorded result, `NCCCCOc1cccc(CNC(=O)c2ccc(S(N)(=O)=O)cc2)c1` , Kd: 10
